molecular target: gt1b NS3 (Hepatitis C virus genotype 1b strain N, UniProt Q9WPH5 1028-1658); assay: filter binding; 3 mM Mg2+; (stopped-flow kon 3.5 uM-1 s-1, Fig 2C); 25 mM MOPS-NH4+ pH 6.5, 3 mM MgCl2, 30 mM NaCl, 1% glycerol, 2 mM DTT, 0.1% Triton X-100; filter binding 37 C, 0.5 nM RNA, Hill fit; stopped flow 25 C; conditions: protein: recombinant; tags: His6-SUMO removed (native N terminus); 5' Cy3 top strand via C3 amino linker (stopped flow); 3' overhang 6 nt on strand 1
measurementName: Kd (nM)
Give the value, in units of nM, as a plain number.

Report measured Kd; entry is 12bp/6-OH (dsRNA) RNA 1: CGGCAGCGAGGCAGGACA RNA 2: GCCUCGCUGCCG
60.4
